- test_system: GlyT1 transporter (Homo sapiens)
- Construct: endogenously expressing the GlyT1 transporter
- assay_details: GlyT1 assay: 3H-glycine uptake into SK-N-MC cells (Cytostar-T format)
- condition_info: glycine uptake in human SK-N-MC cells endogenously expressing GlyT1; 500 nM glycine, 1% DMSO, signal recorded over 60 min
measured_quantity: IC50 (nM)
Answer in nM, number only, no unit symbol.

Guide cases for IC50, answers given:
                                   compound  endpoint_result
0  C[C@H](Oc1ccc(S(C)(=O)=O)cc1C(=O)N1CC2CC2(c2nnc(C(F)(F)F)o2)C1)C(F)(F)F (mixture of isomers) [Example 125]               31
1  C[C@@H](Oc1ccc(S(C)(=O)=O)cc1C(=O)N1CC2CC2(c2nc(C(F)(F)F)co2)C1)C(F)(F)F (single isomer, unassigned) [Example 114]              171
2  Cc1noc(C23CC2CN(C(=O)c2cc(S(C)(=O)=O)ccc2O[C@@H](C)C(F)(F)F)C3)n1 (mixture of isomers)               98

Need IC50, item C[C@@H](Oc1ccc(S(C)(=O)=O)cc1C(=O)N1CC2CC2(c2nnc(C3(C(F)(F)F)CC3)o2)C1)C(F)(F)F (mixture of isomers) [Example 148]
9

Need IC50, item C[C@H](Oc1ccc(S(C)(=O)=O)cc1C(=O)N1CC2CC2(c2nnc(C3(C(F)(F)F)CC3)o2)C1)C(F)(F)F (single isomer, unassigned) [Example 153]
1200

Need IC50, item C[C@H](Oc1ccc(S(C)(=O)=O)cc1C(=O)N1CC2(C)CC2(c2noc(C(F)(F)F)n2)C1)C(F)(F)F (mixture of isomers) [Example 157]
147

Need IC50, item Cc1coc(C23CC2CN(C(=O)c2cc(S(C)(=O)=O)ccc2O[C@@H](C)C(F)(F)F)C3)n1 (mixture of isomers)
190

Need IC50, item C[C@H](Oc1ccc(S(C)(=O)=O)cc1C(=O)N1CC2(C)CC2(c2noc(C(F)(F)F)n2)C1)C(F)(F)F (single isomer, unassigned) [Example 159]
953

Need IC50, item C[C@@H](Oc1ccc(S(C)(=O)=O)cc1C(=O)N1CC2CC2(c2nc(C(F)(F)F)no2)C1)C(F)(F)F (mixture of isomers) [Example 37]
34

---

- test_system: GlyT1 transporter (Homo sapiens, UniProt P48067)
- Construct: endogenously expressing the GlyT1 transporter; host or cells: SK-N-MC human neuroblastoma cells
- Sequence (P48067 whole entry): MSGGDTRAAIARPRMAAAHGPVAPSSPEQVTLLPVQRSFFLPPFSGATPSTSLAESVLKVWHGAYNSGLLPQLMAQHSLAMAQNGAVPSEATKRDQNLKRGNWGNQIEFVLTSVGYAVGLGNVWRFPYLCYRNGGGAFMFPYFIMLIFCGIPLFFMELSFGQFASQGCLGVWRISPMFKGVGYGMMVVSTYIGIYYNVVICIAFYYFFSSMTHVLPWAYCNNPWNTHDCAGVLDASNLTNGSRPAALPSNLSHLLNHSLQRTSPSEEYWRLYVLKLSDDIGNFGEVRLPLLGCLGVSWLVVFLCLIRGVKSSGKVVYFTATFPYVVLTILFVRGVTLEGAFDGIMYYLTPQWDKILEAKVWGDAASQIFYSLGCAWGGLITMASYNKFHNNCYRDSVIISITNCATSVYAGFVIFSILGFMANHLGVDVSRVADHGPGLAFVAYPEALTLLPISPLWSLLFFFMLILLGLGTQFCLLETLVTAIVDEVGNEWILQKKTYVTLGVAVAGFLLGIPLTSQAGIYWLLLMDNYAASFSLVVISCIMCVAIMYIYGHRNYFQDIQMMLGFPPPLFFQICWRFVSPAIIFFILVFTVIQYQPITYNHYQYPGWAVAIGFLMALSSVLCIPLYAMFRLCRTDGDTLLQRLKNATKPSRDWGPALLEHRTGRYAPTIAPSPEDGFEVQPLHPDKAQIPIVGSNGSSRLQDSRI
- assay_details: GlyT1 assay: 3H-glycine uptake into SK-N-MC cells (Cytostar-T format)
- Assay type: cell-based
- condition_info: glycine uptake in human SK-N-MC cells endogenously expressing GlyT1; 500 nM glycine, 1% DMSO, signal recorded over 60 min
Reported IC50 values are given for each entry in this list.
Answer in nM, number only, no unit symbol.

In [3]: df
Out[3]:
                                   compound  endpoint_result
0  C[C@@H](Oc1ccc(S(C)(=O)=O)cc1C(=O)N1CC2CC2(c2nc(C3CC3)no2)C1)C(F)(F)F (mixture of isomers)                7
1  Cc1c(C23CC2CN(C(=O)c2cc(S(C)(=O)=O)ccc2O[C@H](C)C(F)(F)F)C3)noc1C(F)(F)F (single isomer, unassigned) [Example 162]              387
2  C[C@@H](Oc1ccc(S(C)(=O)=O)cc1C(=O)N1CC2CC2(c2cc(C(F)(F)F)on2)C1)C(F)(F)F (mixture of isomers) [Example 49]               19

Here is the next item to consider.
Need IC50, item Cc1nc(C23CC2CN(C(=O)c2cc(S(C)(=O)=O)ccc2O[C@@H](C)C(F)(F)F)C3)cs1 (mixture of isomers)
22

---

Reported pIC50 values are given for each entry in this list.
- test_system: GlyT1 transporter (Homo sapiens, UniProt P48067)
- Construct: endogenously expressing the GlyT1 transporter
- assay_details: GlyT1 assay: 3H-glycine uptake into SK-N-MC cells (Cytostar-T format)
- condition_info: glycine uptake in human SK-N-MC cells endogenously expressing GlyT1; 500 nM glycine, 1% DMSO, signal recorded over 60 min
Reminder that pIC50 means the negative base-10 logarithm of the concentration expressed in mol/L.

Guide cases for pIC50, answers given:
In [3]: df
Out[3]:
                                   compound  measured_quantity  endpoint_result
0  C[C@H](Oc1ccc(S(C)(=O)=O)cc1C(=O)N1CC2CC2(c2noc(C(F)(F)F)n2)C1)C(F)(F)F (mixture of isomers) [Example 1]              pIC50             7.41
1  C[C@H](Oc1ccc(S(C)(=O)=O)cc1C(=O)N1CC2CC2(c2noc(C3CC3)n2)C1)C(F)(F)F (mixture of isomers) [Example 9]              pIC50             7.74
2  C[C@@H](Oc1ccc(S(C)(=O)=O)cc1C(=O)N1CC2CC2(c2coc(C3CC3)n2)C1)C(F)(F)F (mixture of isomers) [Example 81]              pIC50             8.22

Need pIC50, item Cc1nc(C23CC2CN(C(=O)c2cc(S(C)(=O)=O)ccc2O[C@H](C)C(F)(F)F)C3)no1 (single isomer, unassigned) [Example 43]
6.60

Need pIC50, item C[C@@H](Oc1ccc(S(C)(=O)=O)cc1C(=O)N1CC2CC2(c2nnc(C3CC3)o2)C1)C(F)(F)F (mixture of isomers)
8.05
